Test: Anthelmintic activity against Megascoplex konkanensis ICARBC 211 assessed as mean death time
Type: functional
Residues, ends and D or L forms follow the SMILES beside them. *: point of attachment. X3 = Cc1cc2nc(-c3c(I)cc(C(=O)*)cc3I)[nH]c2cc1C; X4 = Cc1cc2nc(-c3ccc(C(=O)*)cc3)[nH]c2cc1C
MEASURED ENDPOINT: TIME (h)

{"MOLECULE": "COC(=O)[C@H](C)NC(=O)[C@@H]1CCCN1C(=O)c1cc(-c2nc3ccc([N+](=O)[O-])cc3[nH]2)ccc1O", "MEASURED ENDPOINT": "TIME", "DATA VALUE": 0.587}
{"MOLECULE": "COC(=O)[C@H](Cc1cnc[nH]1)NC(=O)c1cc(I)c(-c2nc3cc(C)c(C)cc3[nH]2)c(I)c1", "MEASURED ENDPOINT": "TIME", "DATA VALUE": 0.758}
{"MOLECULE": "O=C(O)[C@@H]1CCCN1C(=O)[C@@H]1CCCN1C(=O)[C@@H]1CCCN1C(=O)c1cc(-c2nc3ccc([N+](=O)[O-])cc3[nH]2)ccc1O", "MEASURED ENDPOINT": "TIME", "DATA VALUE": 0.567}
{"MOLECULE": "COC(=O)[C@H](C)NC(=O)[C@@H](NC(=O)[C@H](C)NC(=O)c1cc(-c2nc3cc(C)c(C)cc3[nH]2)ccc1O)C(C)C", "MEASURED ENDPOINT": "TIME", "DATA VALUE": 0.578}
{"MOLECULE": "COC(=O)[C@H](Cc1ccccc1)NC(=O)[C@@H]1CCCN1C(=O)[C@@H]1CCCN1C(=O)c1ccc(-c2nc3cc(C)c(C)cc3[nH]2)cc1", "MEASURED ENDPOINT": "TIME", "DATA VALUE": 1.04}
{"MOLECULE": "Cc1cc2nc(-c3ccc(C(=O)N[C@@H](Cc4cnc[nH]4)C(=O)N[C@@H](Cc4ccc(O)cc4)C(=O)O)cc3)[nH]c2cc1C", "MEASURED ENDPOINT": "TIME", "DATA VALUE": 0.37}
{"MOLECULE": "Cc1cc2nc(-c3ccc(O)c(C(=O)N[C@@H](Cc4c[nH]c5ccccc45)C(=O)N[C@@H](C)C(=O)N[C@@H](Cc4ccc(O)cc4)C(=O)O)c3)[nH]c2cc1C", "MEASURED ENDPOINT": "TIME", "DATA VALUE": 0.377}
{"MOLECULE": "COC(=O)[C@H](Cc1cnc[nH]1)NC(=O)[C@H](Cc1cnc[nH]1)NC(=O)c1cc(-c2nc3cc(C)c(C)cc3[nH]2)ccc1O", "MEASURED ENDPOINT": "TIME", "DATA VALUE": 0.305}
{"MOLECULE": "COC(=O)[C@H](Cc1c[nH]c2ccccc12)NC(=O)c1cc(I)c(-c2nc3cc(C)c(C)cc3[nH]2)c(I)c1", "MEASURED ENDPOINT": "TIME", "DATA VALUE": 0.371}
{"MOLECULE": "COC(=O)[C@H](Cc1ccc(O)cc1)NC(=O)[C@H](C)NC(=O)[C@H](Cc1c[nH]c2ccccc12)NC(=O)c1cc(-c2nc3cc(C)c(C)cc3[nH]2)ccc1O", "MEASURED ENDPOINT": "TIME", "DATA VALUE": 0.379}
{"MOLECULE": "COC(=O)[C@H](Cc1ccccc1)NC(=O)c1cc(-c2nc3cc(C)c(C)cc3[nH]2)ccc1O", "MEASURED ENDPOINT": "TIME", "DATA VALUE": 0.592}
{"MOLECULE": "COC(=O)[C@@H](NC(=O)c1cc(I)c(-c2nc3cc(C)c(C)cc3[nH]2)c(I)c1)[C@@H](C)O", "MEASURED ENDPOINT": "TIME", "DATA VALUE": 0.987}
{"MOLECULE": "CC(C)[C@H](NC(=O)c1cc(-c2nc3ccc([N+](=O)[O-])cc3[nH]2)ccc1O)C(=O)N[C@@H](Cc1ccccc1)C(=O)N[C@@H](Cc1cnc[nH]1)C(=O)O", "MEASURED ENDPOINT": "TIME", "DATA VALUE": 0.326}
{"MOLECULE": "Cc1cc2nc(-c3ccc(C(=O)N[C@@H](CCCNC(=N)N[N+](=O)[O-])C(=O)O)cc3)[nH]c2cc1C", "MEASURED ENDPOINT": "TIME", "DATA VALUE": 0.438}
{"MOLECULE": "COC(=O)[C@H](C)NC(=O)[C@H](CCCNC(=N)N[N+](=O)[O-])NC(=O)c1cc(-c2nc3cc(C)c(C)cc3[nH]2)ccc1O", "MEASURED ENDPOINT": "TIME", "DATA VALUE": 0.423}
{"MOLECULE": "CC[C@H](C)[C@H](NC(=O)CNC(=O)[C@H](Cc1c[nH]c2ccccc12)NC(=O)c1ccc(-c2nc3cc(C)c(C)cc3[nH]2)cc1)C(=O)N[C@@H](C)C(=O)OC (X4-WGIA-OMe)", "MEASURED ENDPOINT": "TIME", "DATA VALUE": 0.375}
{"MOLECULE": "COC(=O)[C@H](CCCNC(=N)N[N+](=O)[O-])NC(=O)c1ccc(-c2nc3cc(C)c(C)cc3[nH]2)cc1", "MEASURED ENDPOINT": "TIME", "DATA VALUE": 0.443}
{"MOLECULE": "CC[C@H](C)[C@H](NC(=O)CNC(=O)c1cc(I)c(-c2nc3cc(C)c(C)cc3[nH]2)c(I)c1)C(=O)NCC(=O)N[C@H](C(=O)OC)[C@@H](C)O (X3-GIGT-OMe)", "MEASURED ENDPOINT": "TIME", "DATA VALUE": 1.08}
{"MOLECULE": "Cc1cc2nc(-c3c(I)cc(C(=O)N[C@@H](C)C(=O)N[C@@H](Cc4ccc(O)cc4)C(=O)NCC(=O)O)cc3I)[nH]c2cc1C", "MEASURED ENDPOINT": "TIME", "DATA VALUE": 0.676}
{"MOLECULE": "COC(=O)[C@@H]1CCCN1C(=O)[C@H](Cc1cnc[nH]1)NC(=O)c1cc(I)c(-c2nc3cc(C)c(C)cc3[nH]2)c(I)c1", "MEASURED ENDPOINT": "TIME", "DATA VALUE": 0.379}
{"MOLECULE": "COC(=O)[C@H](Cc1c[nH]c2ccccc12)NC(=O)c1cc(-c2nc3ccc([N+](=O)[O-])cc3[nH]2)ccc1O", "MEASURED ENDPOINT": "TIME", "DATA VALUE": 0.374}
{"MOLECULE": "Cc1cc2nc(-c3ccc(C(=O)N[C@@H](CC(C)C)C(=O)NCC(=O)O)cc3)[nH]c2cc1C", "MEASURED ENDPOINT": "TIME", "DATA VALUE": 0.671}
{"MOLECULE": "Cc1cc2nc(-c3c(I)cc(C(=O)N[C@@H](Cc4cnc[nH]4)C(=O)N4CCC[C@H]4C(=O)O)cc3I)[nH]c2cc1C", "MEASURED ENDPOINT": "TIME", "DATA VALUE": 0.373}
{"MOLECULE": "O=C(O)CNC(=O)CNC(=O)c1cc(-c2nc3ccc([N+](=O)[O-])cc3[nH]2)ccc1O", "MEASURED ENDPOINT": "TIME", "DATA VALUE": 0.601}
{"MOLECULE": "COC(=O)[C@H](CCCNC(=N)N[N+](=O)[O-])NC(=O)[C@@H]1CCCN1C(=O)c1cc(I)c(-c2nc3cc(C)c(C)cc3[nH]2)c(I)c1", "MEASURED ENDPOINT": "TIME", "DATA VALUE": 0.439}
{"MOLECULE": "COC(=O)CNC(=O)[C@H](CC(C)C)NC(=O)c1ccc(-c2nc3cc(C)c(C)cc3[nH]2)cc1", "MEASURED ENDPOINT": "TIME", "DATA VALUE": 0.69}
{"MOLECULE": "COC(=O)CNC(=O)CNC(=O)c1cc(-c2nc3ccc([N+](=O)[O-])cc3[nH]2)ccc1O", "MEASURED ENDPOINT": "TIME", "DATA VALUE": 0.608}

Reference for the values: ChEMBL document CHEMBL1146375
